Quick reference for normalised viability among some compounds
System: CAL-85-1
Test: normalised viability (% of control), CellTiter-Blue; higher = more viable cells (about 100 = DMSO control)
Details: 10 nM; incubation time: 72 h
recorded_endpoint: normalised viability (%)

> print(dat)
                                   compound  test.value
1  CC(C)C[C@@H](C(=O)N[C@H](C(=O)OC1CCCC1)c1ccccc1)[C@H](O)C(=O)NO [Tosedostat]        89.4
2  CNC(=O)c1cc(Oc2ccc(NC(=O)Nc3ccc(Cl)c(C(F)(F)F)c3)c(F)c2)ccn1 [Regorafenib]        97.1
3  Cc1cc(Nc2cc(CN3CCOCC3)c3nc(C)c(Cc4ccc(Cl)cc4F)n3n2)n[nH]1        91.6
4  COc1cc2/c(=N/c3ccc(Br)cc3F)nc[nH]c2cc1OCC1CCN(C)CC1 [Vandetanib]         104
5  O=C(Nc1ccncc1)C(=O)c1cn(Cc2ccc(Cl)cc2)c2ccccc12 [Indibulin]         106
6  CN(C)c1nc(N(C)C)nc(N(C)C)n1 [Altretamine]         102
